assay: AlphaScreen counterscreen against bio-H3K4me2 peptide in the absence of enzyme (artifact signal); settings: effect of the compound when incubated with bio-H3K4me2 peptide (counterscreen, no enzyme)
Counter-ions that a name gives are not always drawn.
Reported Artifact Signal (percent) values for a set of molecules
measured-property: Artifact Signal (percent) (%)

{"molecule": "Clc1ccc2nc(-c3ccccn3)c(Nc3ccc4c(c3)OCO4)n2c1", "measured": 3.56}
{"molecule": "C=CCn1c(-c2cccc(OC)c2OC)n[nH]c1=S", "measured": 2.98}
{"molecule": "CC(C)(C#N)O[C@@H]1O[C@H](CO)[C@@H](O)[C@H](O)[C@H]1O [YU155312, LINAMARIN, reference compound]", "measured": "−6.55"}
{"molecule": "Cc1ccccc1C(OCCN(C)C)c1ccccc1 (centres unmarked) [YU033938, ORPHENADRINE CITRATE, reference compound]", "measured": 0.79}
{"molecule": "Cc1ccsc1CNn1cnnc1S", "measured": 1.67}

----------
test: AlphaScreen counterscreen against bio-H3K4me2 peptide in the absence of enzyme (artifact signal); conditions: effect of the compound when incubated with bio-H3K4me2 peptide (counterscreen, no enzyme);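 note: counterscreen run without enzyme against bio-H3K4me2 peptide to remove false positive hits from the JARID1 demethylase AlphaScreen screen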
This listing pairs compounds with measured Artifact Signal (percent).

{"compound": "Oc1cccc(C(=S)N2CCN(Cc3ccccc3)CC2)c1 [YU151559]", "Artifact Signal (percent)": "9.22%"}
{"compound": "COc1ccc2nc(NCc3ccncc3)sc2c1 [YU147704]", "Artifact Signal (percent)": "1.42%"}
{"compound": "COc1ccc(C)cc1NC(c1cccnc1)c1ccc2cccnc2c1O (stereo not shown) [YU172175]", "Artifact Signal (percent)": "36.93%"}
{"compound": "COc1cc(C(=S)N2CC(C)OC(C)C2)cc(OC)c1O (stereo not shown) [YU151441]", "Artifact Signal (percent)": "−3.82%"}
{"compound": "CC[C@H]1OC(=O)[C@H](C)[C@@H](OC2CC(C)(OC)C(O)C(C)O2)[C@H](C)[C@@H](S2(C)(=O)NC3C(N(C)C)CC(C)NC32)[C@](C)(O)C[C@@H](C)/C(=N\\C)[C@H](C)[C@@H](O)[C@]1(C)O (stereo partly shown) [YU035181]", "Artifact Signal (percent)": "4.88%"}
{"compound": "NC(=O)NO [YU033863, HYDROXYUREA, reference compound]", "Artifact Signal (percent)": "−8.00%"}
{"compound": "O=C1C=CC(=O)[C@@H](Br)[C@@H]1Br [YU221139]", "Artifact Signal (percent)": "7.07%"}

----------
target: JARID1B (Homo sapiens, UniProt Q9UGL1); construct: The FLAG tagged full length JARID1B enzyme was expressed in Sf21 insect cells using FLAG-JARID1B baculoviruses; FLAG (N); made in house; host or cells: Sf21 insect cells (baculovirus); experiment: FLAG-JARID1B histone demethylase assay with AlphaScreen detection (HTS and dose response); format: biochemical; conditions: validation of HTS actives; effect of compound in JARID1B AlphaScreen assay;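 note: FLAG-tagged JARID1B at 4 nM acting on a biotinylated H3K4me3 peptide, demethylation read by AlphaScreen luminescence, with hits checked against bio-H3K4me2 without enzyme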;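 note: compound tested at 20 µM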
Sequence (Q9UGL1 whole entry): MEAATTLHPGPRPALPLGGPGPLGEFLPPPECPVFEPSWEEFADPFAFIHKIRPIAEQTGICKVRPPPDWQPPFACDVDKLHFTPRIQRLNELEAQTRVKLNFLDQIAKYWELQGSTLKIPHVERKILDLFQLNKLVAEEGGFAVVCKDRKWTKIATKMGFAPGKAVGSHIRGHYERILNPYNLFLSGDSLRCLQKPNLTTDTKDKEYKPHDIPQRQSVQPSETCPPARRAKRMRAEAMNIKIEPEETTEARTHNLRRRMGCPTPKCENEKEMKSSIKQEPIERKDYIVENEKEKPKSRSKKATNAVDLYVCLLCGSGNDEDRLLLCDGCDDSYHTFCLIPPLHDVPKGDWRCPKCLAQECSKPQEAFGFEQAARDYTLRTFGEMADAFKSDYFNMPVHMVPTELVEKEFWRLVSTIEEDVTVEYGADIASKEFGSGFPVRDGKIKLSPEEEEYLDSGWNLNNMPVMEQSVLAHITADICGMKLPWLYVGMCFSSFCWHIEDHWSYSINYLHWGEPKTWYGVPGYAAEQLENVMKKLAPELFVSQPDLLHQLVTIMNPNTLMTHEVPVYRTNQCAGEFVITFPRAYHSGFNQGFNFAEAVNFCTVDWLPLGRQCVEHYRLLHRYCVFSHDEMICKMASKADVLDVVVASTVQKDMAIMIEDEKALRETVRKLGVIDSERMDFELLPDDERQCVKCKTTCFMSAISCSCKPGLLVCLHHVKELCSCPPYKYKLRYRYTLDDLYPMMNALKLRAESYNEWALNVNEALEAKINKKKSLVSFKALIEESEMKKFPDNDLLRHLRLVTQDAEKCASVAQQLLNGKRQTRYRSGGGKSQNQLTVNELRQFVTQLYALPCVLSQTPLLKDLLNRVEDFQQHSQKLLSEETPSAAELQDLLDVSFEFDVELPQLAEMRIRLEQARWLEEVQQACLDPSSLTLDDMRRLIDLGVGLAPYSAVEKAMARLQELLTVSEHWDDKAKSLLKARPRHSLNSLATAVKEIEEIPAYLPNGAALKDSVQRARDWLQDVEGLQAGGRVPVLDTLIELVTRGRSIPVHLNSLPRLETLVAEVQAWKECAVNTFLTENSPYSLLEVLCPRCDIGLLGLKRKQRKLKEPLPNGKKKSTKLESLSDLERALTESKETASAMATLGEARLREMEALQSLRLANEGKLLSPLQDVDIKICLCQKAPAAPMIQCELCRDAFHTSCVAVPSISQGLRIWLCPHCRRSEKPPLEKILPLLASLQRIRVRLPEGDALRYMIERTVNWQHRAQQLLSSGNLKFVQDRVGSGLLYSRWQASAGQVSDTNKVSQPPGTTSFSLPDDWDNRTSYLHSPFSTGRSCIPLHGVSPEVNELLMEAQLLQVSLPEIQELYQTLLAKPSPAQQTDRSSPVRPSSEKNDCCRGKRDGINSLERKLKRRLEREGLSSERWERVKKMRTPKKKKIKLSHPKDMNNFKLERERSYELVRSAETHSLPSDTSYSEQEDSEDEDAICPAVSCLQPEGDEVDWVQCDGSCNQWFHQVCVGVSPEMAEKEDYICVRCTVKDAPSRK
Where a name gives a salt, the structure may show the parent alone.
Assay Signal (percent) less than 20% is Y; Assay Signal (percent) greater than or equal to 20% is N.

{"compound": "Cc1cc(N)c2ccccc2[n+]1CCCCCCCCCC[n+]1c(C)cc(N)c2ccccc21 [YU034372, DEQUALINIUM CHLORIDE, reference compound]", "qualitative-label": "N"}
{"compound": "O=C(NCc1ccccc1)c1ccc(N2CCCC2)c([N+](=O)[O-])c1", "qualitative-label": "Y"}
{"compound": "COC1=CC(=O)C(O)=CC1=CC=Cc1ccccc1 (single isomer, unassigned) [YU155007, OBTUSAQUINONE, reference compound]", "qualitative-label": "N"}
{"compound": "O=C1C=CC(=O)[C@@H](Br)[C@@H]1Br", "qualitative-label": "N"}
{"compound": "Cc1cc(C)nc(N(C#N)C(=S)N(C)C)n1", "qualitative-label": "Y"}
{"compound": "Cc1ccc(CNn2cnnc2S)cc1", "qualitative-label": "N"}
{"compound": "NC(CO)C(=O)NNCc1ccc(O)c(O)c1O (stereo not shown) [YU033702, BENSERAZIDE HYDROCHLORIDE, reference compound]", "qualitative-label": "N"}
{"compound": "Clc1ccc2nc(-c3ccccn3)c(Nc3ccc4c(c3)OCO4)n2c1", "qualitative-label": "N"}
{"compound": "Oc1cc(O)c2c(c1)O[C@H](c1ccc(O)c(O)c1)[C@@H](O)C2 [YU033631, CIANIDANOL, reference compound]", "qualitative-label": "N"}
{"compound": "O=c1c(O)cc([C@H]2Oc3cc(O)cc(O)c3C[C@H]2O)cc2c([C@H]3Oc4cc(O)cc(O)c4C[C@H]3O)cc(O)c(O)c12 [YU155003, THEAFLAVIN, reference compound]", "qualitative-label": "N"}
{"compound": "COc1c(O)cc2c(c1O)[C@@H]1O[C@H](CO)[C@@H](O)[C@H](O)[C@H]1OC2=O [YU155621, BERGENIN, reference compound]", "qualitative-label": "N"}
{"compound": "Cc1cc(C(=O)Nc2c(C)n(C)n(-c3ccccc3)c2=O)c(C)o1", "qualitative-label": "Y"}
{"compound": "Oc1cc(O)cc(/C=C/c2ccc(O)c(O)c2)c1 [YU154843, PICEATANNOL, reference compound]", "qualitative-label": "Y"}
{"compound": "Cc1ccc(S(=O)(=O)C=CC#N)cc1 (single isomer, unassigned) [YU154885, BAY 11-7082, reference compound]", "qualitative-label": "N"}
{"compound": "CC(O)Cc1nnc(S)n1-c1ccccc1 (stereo not shown)", "qualitative-label": "N"}
{"compound": "Cc1cc(OCc2nc3ccccc3s2)ccc1N", "qualitative-label": "Y"}
{"compound": "COc1ccc2c(CCN)c[nH]c2c1.Cl", "qualitative-label": "Y"}
{"compound": "N#CC(=Cc1ccncc1)c1nc2ccccc2s1", "qualitative-label": "N"}
{"compound": "CNC(C(=O)N(C)OC)C(C)C (stereo not shown)", "qualitative-label": "Y"}
